# subject of test: human recombinant 6His-Nterm SHP2 full-length (Thr2-Arg593) (Homo sapiens)
# Construct: 6His-Nterm SHP2 full-length (Thr2-Arg593, R&D system); 6His (N)
# Sequence (Q06124 2-593): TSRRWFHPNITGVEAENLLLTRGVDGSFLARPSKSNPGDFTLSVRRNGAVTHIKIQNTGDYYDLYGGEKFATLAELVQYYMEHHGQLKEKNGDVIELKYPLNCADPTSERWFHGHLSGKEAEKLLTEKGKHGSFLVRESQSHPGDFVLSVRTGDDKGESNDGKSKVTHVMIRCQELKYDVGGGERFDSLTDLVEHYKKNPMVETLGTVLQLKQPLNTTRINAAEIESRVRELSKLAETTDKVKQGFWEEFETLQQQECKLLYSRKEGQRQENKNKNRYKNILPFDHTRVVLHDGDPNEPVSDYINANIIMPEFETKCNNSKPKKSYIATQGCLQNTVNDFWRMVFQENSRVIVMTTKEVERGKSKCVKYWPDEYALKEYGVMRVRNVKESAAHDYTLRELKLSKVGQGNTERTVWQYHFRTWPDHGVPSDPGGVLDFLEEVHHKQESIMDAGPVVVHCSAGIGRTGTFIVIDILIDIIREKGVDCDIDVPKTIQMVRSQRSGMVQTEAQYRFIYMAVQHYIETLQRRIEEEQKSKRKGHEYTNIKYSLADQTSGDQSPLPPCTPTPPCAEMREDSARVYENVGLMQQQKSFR
# method summary: SHP2 Phosphatase Assay (DiFMUP fluorescence)
# measurement setup: SHP2 0.2 nM pre-incubated with 100 nM bi-phosphorylated activating peptide; compound 1000-0.05 nM, 30 min pre-incubation; DiFMUP 20 µM, 45 min, room temperature; 10-concentration dose-response
Counter-ions that a name gives are not always drawn.
Assignment: determine reported IC50 for the given compounds.
Numbers only, in nM.

COc1ccc2c(n1)[C@H](N)C1(CCN(c3nc(C)c(-c4cccc(F)c4Cl)n4nccc34)CC1)C2 [Compound 216]	685
Cc1nc(N2CCC3(CC2)Cc2ncccc2[C@H]3N)c2ccnn2c1-c1ccc(Cl)s1 [Compound 53]	3

Count: 4. Required value per item: IC50.
1. Cc1nc2c(s1)[C@@H](N)C1(CCN(c3nc(C)c(-c4ccc5nccnc5c4Cl)n4nccc34)CC1)C2 [Compound 81, hydrochloride]
2. Cc1nc(N2CCC3(CC2)Cc2ncccc2[C@H]3N)c2ccnn2c1-c1sccc1Cl [Compound 38]
3. CNc1cc(-c2c(C)nc(N3CCC4(CC3)Cc3ncccc3[C@H]4N)c3ccnn23)ccn1 [Compound 168]
4. COc1ccc2c(c1)[C@@H](N)C1(CCN(c3nc(C)c(-c4cccc(F)c4Cl)n4nccc34)CC1)C2 [Compound 9, hydrochloride]

Found:
1. 4
2. 12
3. 30
4. 43

Lookup: Can you share its IC50? I mean this compound: Cc1nc(N2CCC3(CC2)Cc2ncccc2[C@H]3N)c2ccnn2c1-c1ccncc1Cl [Compound 100, hydrochloride]
Found: 13
